PROTOCOL DESCRIPTION: qHTS assay to identify small molecule antagonists of the thyroid receptor (TR) signaling pathway (AID 743065); note: nearly all actives have a fitted effect of over 55% in size
TEST PARAMETERS: GH3.TRE-Luc, T3-stimulated luciferase inhibition, 23.5 h; series mostly up to 70.3 µM
From the text: U.S. Tox21 Program National Center for Advancing Translational Sciences [NCATS] NIH Chemical Genomics Center [NCGC] U.S. Environmental Protection Agency [EPA] National Institutes of Environmental Health Sciences [NIEHS] National Toxicology Program [NTP] U.S. Food and Drug Administration [FDA] Tox21 Assay Overview: Thyroid receptor (TR), a nuclear hormone receptor, plays an important role in development, proliferation, differentiation, metabolism, brain function, and cardiovascular system. […]
Inconclusive results are not listed. Calls of active or inactive are those of the source. Calls come from the whole dose curve; as a rule, active = well fitted inhibition curve with a large enough effect in the repeat runs; inconclusive = weak or mixed curves; inactive = no such curve, though single readings can be large or run the other way.
Choose the fitting class; nothing outside class 1 = active, class 0 = inactive is accepted.

structure=Cc1cc(F)ccc1-c1cc(N2CC[C@@H](O)[C@H]2CO)ncc1N(C)C(=O)C(C)(C)c1cc(C(F)(F)F)cc(C(F)(F)F)c1 assigned_category="class 1"
structure=O=C(O)CCCC/C=C(\c1ccccc1)c1cccnc1 assigned_category="class 0"
structure=COc1ccc(/C=C/C(=O)Nc2ccccc2C(=O)O)cc1OC assigned_category="class 1"
structure=CC(=O)NC[C@H]1CN(c2ccc(N3CCOCC3)c(F)c2)C(=O)O1 assigned_category="class 0"
structure=CC(C)OC(=O)Nc1ccc2nc(-c3cscn3)[nH]c2c1 assigned_category="class 1"

Request: Name the outcome recorded for "CC[C@H]1OC(=O)C[C@@H](O)[C@H](C)[C@@H](O[C@@H]2O[C@H](C)[C@@H](O)[C@H](N(C)C)[C@H]2O)[C@@H](CCN2C[C@H](C)C[C@H](C)C2)C[C@@H](C)C(=O)/C=C/C(C)=C/[C@@H]1CO[C@@H]1O[C@H](C)[C@@H](O)[C@@H](OC)[C@H]1OC" in the assay.
Response: class 0

Request: Name the outcome recorded for "Cc1cc(=O)c(C(=O)N[C@@H](C(=O)N[C@@H]2C(=O)N3C(C(=O)O)=C(CSc4nnnn4C)CS[C@H]23)c2ccc(O)cc2)c[nH]1" in the assay.
Response: class 0

* * *

PROTOCOL DESCRIPTION: qHTS assay for identifying genotoxic compounds that show differential cytotoxicity against isogenic chicken DT40 cell lines with known DNA damage response pathways - Rad54/Ku70 mutant cell line (AID 743015); note: nearly all actives have a fitted effect of over 60% in size
TEST PARAMETERS: DT40 Rad54/Ku70 mutant viability, CellTiter-Glo, 40 h; series mostly up to 66.8 µM
Results filed as inconclusive are left out. Active and inactive are the calls of the source. The call rests on the fitted dose curve; in most records, active means well fitted cell-killing curve with a large enough effect in the repeat runs; inconclusive means weak or mixed curves; inactive means no such curve, though single readings can be large or run the other way.
Choose the fitting class; nothing outside true (1) for active, false (0) for inactive is accepted.

Would you please look over these solved cases?
molecule=CCOC(=O)[C@H](CCc1ccccc1)N[C@@H](C)C(=O)N1[C@H](C(=O)O)C[C@H]2CCCC[C@@H]21 assigned_category="false (0)"
molecule=CO[C@H]1C[C@H](O[C@H]2[C@H](C)[C@@H](O[C@@H]3O[C@H](C)C[C@H](N(C)C)[C@H]3O)[C@@H](C)C[C@]3(CO3)C(=O)[C@H](C)[C@@H](O)[C@@H](C)[C@@H](C)OC(=O)[C@@H]2C)O[C@@H](C)[C@@H]1O assigned_category="false (0)"

Request: Name the outcome recorded for "CC(C)(C)C(=O)OCC(=O)[C@H]1CC[C@H]2[C@@H]3CCC4=CC(=O)CC[C@]4(C)[C@H]3CC[C@]12C" in the assay.
Response: false (0)

Request: Name the outcome recorded for "CCN(CC)CCOC[C@H]1O[C@@H](O)[C@H](OCCN(CC)CC)[C@@H](O)[C@@H]1O" in the assay.
Response: false (0)

Request: Name the outcome recorded for "Cc1ccc(Cl)c(N)c1Cl" in the assay.
Response: false (0)

Request: Name the outcome recorded for "O=C(O)c1cc(O)c2c(c1)[C@H]([C@H]1c3cc(C(=O)O)cc(O)c3C(=O)c3c(O[C@@H]4O[C@H](CO)[C@@H](O)[C@H](O)[C@H]4O)cccc31)c1cccc(O[C@@H]3O[C@H](CO)[C@@H](O)[C@H](O)[C@H]3O)c1C2=O" in the assay.
Response: false (0)

Request: Name the outcome recorded for "Cc1cc(C(=O)NCCc2ccc(S(=O)(=O)NC(=O)NN3CCCCCC3)cc2)no1" in the assay.
Response: false (0)

Request: Name the outcome recorded for "CC1=C(/C=C/C(C)=C/C=C/C(C)=C/C=C/C=C(C)/C=C/C=C(C)/C=C/C2=C(C)CCCC2(C)C)C(C)(C)CCC1" in the assay.
Response: false (0)

Request: Name the outcome recorded for "CCCCCCCCCCCCCCCCCCNC(=O)OC1CCN(C(=O)OC[C@H](COC(=O)N(Cc2cccc[n+]2CC)C(=O)c2ccccc2OC)OC)CC1" in the assay.
Response: true (1)

Request: Name the outcome recorded for C/C(=C(/CCO)SSCC1CCCO1)N(C=O)Cc1cnc(C)nc1N (stereo unspecified) in the assay.
Response: true (1)

Request: Name the outcome recorded for "O=C(O)c1cc2cc(Cc3cccnc3)ccc2o1" in the assay.
Response: false (0)

Request: Name the outcome recorded for "CCc1cn([C@H]2C[C@H](O)[C@@H](CO)O2)c(=O)[nH]c1=O" in the assay.
Response: false (0)

Request: Name the outcome recorded for COC(=O)C[C@](O)(CCCC(C)(C)O)C(=O)O[C@@H]1C(OC)=CC23CCCN2CCc2cc4c(cc2[C@H]13)OCO4 (stereo partly specified) in the assay.
Response: true (1)

Request: Name the outcome recorded for "CN[C@H]1CC[C@@H](c2ccc(Cl)c(Cl)c2)c2ccc(S(N)(=O)=O)cc21" in the assay.
Response: true (1)

Request: Name the outcome recorded for "CN1CCN(CCCN2c3ccccc3Sc3ccc(C(F)(F)F)cc32)CC1" in the assay.
Response: true (1)

Request: Name the outcome recorded for NCC(O)CC(=O)O (stereo unspecified) in the assay.
Response: false (0)

* * *

PROTOCOL DESCRIPTION: qHTS assay to identify small molecule antagonists of the retinoid-related orphan receptor gamma (ROR-gamma) signaling pathway - cell viability counter screen (AID 1159520); note: nearly all actives have a fitted effect of over 50% in size
TEST PARAMETERS: Tet-on RORgamma CHO cells viability, ATP luminescence, 16 h; series mostly up to 92.4 µM
Inconclusive results are not listed. Activity calls are given as the source filed them. Calls follow the shape of the dose curve; as a rule, active = well fitted cell-killing curve with a large enough effect in the repeat runs; inconclusive = weak or mixed curves, or effect the other way; inactive = no such curve, though single readings can be large or run the other way.
Choose the fitting class; nothing outside active, inactive is accepted.

structure=O=[N+]([O-])c1ccc(CO)cc1 assigned_category=inactive
structure=Cc1ccc(Cl)c(N)c1Cl assigned_category=inactive
structure=C=Cc1ccncc1 assigned_category=inactive
structure=O=C1OC(=O)c2cc(-c3ccc4c(c3)C(=O)OC4=O)ccc21 assigned_category=inactive
structure=NCc1ccco1 assigned_category=inactive

Request: Name the outcome recorded for "N#Cc1nc(Cl)c(Cl)c(Cl)c1Cl" in the assay.
Response: active

Request: Name the outcome recorded for "NC(=O)c1ccccc1Cl" in the assay.
Response: inactive

Request: Name the outcome recorded for "c1ccc2c(c1)-c1ccc3ccc4cccc5cc-2c1c3c45" in the assay.
Response: inactive

Request: Name the outcome recorded for "CC(C)(c1ccc(Oc2ccc(N)cc2)cc1)c1ccc(Oc2ccc(N)cc2)cc1" in the assay.
Response: active

Request: Name the outcome recorded for "CCOC=C(C(=O)OCC)C(=O)OCC" in the assay.
Response: inactive

Request: Name the outcome recorded for "O=C1OCc2ccccc21" in the assay.
Response: inactive

Request: Name the outcome recorded for "CCOC(=O)[C@H](C)O" in the assay.
Response: inactive

Request: Name the outcome recorded for "CN(C/C=C/c1ccccc1)Cc1cccc2ccccc12" in the assay.
Response: inactive

Request: Name the outcome recorded for "N#Cc1ccc(C/C(=N/NC(=O)Nc2ccc(OC(F)(F)F)cc2)c2cccc(C(F)(F)F)c2)cc1" in the assay.
Response: inactive

* * *

PROTOCOL DESCRIPTION: qHTS assay to identify small molecule antagonists of the thyroid receptor (TR) signaling pathway (AID 743065); note: nearly all actives have a fitted effect of over 55% in size
TEST PARAMETERS: GH3.TRE-Luc, T3-stimulated luciferase inhibition, 23.5 h; series mostly up to 70.3 µM
Results filed as inconclusive are left out. Active and inactive are the calls of the source. The call rests on the fitted dose curve; in most records, active means well fitted inhibition curve with a large enough effect in the repeat runs; inconclusive means weak or mixed curves; inactive means no such curve, though single readings can be large or run the other way.
Choose the fitting class; nothing outside active, inactive is accepted.

Would you please look over these solved cases?
compound=CCOC(=O)COc1ccc2c(=O)cc(-c3ccccc3)oc2c1 assigned_category=inactive
compound=C[C@]12O[C@H](C[C@]1(O)CO)n1c3ccccc3c3c4c(c5c6ccccc6n2c5c31)CNC4=O assigned_category=active
compound=NC(=O)CC[C@@H]1NC(=O)[C@H](Cc2ccccc2)NC(=O)[C@H](Cc2ccc(O)cc2)NC(=O)[C@@H](N)CSSC[C@@H](C(=O)N2CCC[C@H]2C(=O)N[C@@H](CCCN=C(N)N)C(=O)NCC(N)=O)NC(=O)[C@H](CC(N)=O)NC1=O assigned_category=inactive

Request: Name the outcome recorded for "C[C@@H]1C[C@H]2[C@@H]3C[C@H](F)C4=CC(=O)C=C[C@]4(C)[C@@]3(Cl)[C@@H](O)C[C@]2(C)[C@H]1C(=O)COC(=O)C(C)(C)C" in the assay.
Response: inactive
